Provenance of the data: patent US20250352659A1

Measured Emax (%), ADC direct killing, NCI-H1650 (High), 3D accompanies every entry in the list below.
# TARGET_OR_TEST_SYSTEM: T1, B7H3 (human, UniProt Q5ZPR3 29-534)
# T1 sequence (looked up): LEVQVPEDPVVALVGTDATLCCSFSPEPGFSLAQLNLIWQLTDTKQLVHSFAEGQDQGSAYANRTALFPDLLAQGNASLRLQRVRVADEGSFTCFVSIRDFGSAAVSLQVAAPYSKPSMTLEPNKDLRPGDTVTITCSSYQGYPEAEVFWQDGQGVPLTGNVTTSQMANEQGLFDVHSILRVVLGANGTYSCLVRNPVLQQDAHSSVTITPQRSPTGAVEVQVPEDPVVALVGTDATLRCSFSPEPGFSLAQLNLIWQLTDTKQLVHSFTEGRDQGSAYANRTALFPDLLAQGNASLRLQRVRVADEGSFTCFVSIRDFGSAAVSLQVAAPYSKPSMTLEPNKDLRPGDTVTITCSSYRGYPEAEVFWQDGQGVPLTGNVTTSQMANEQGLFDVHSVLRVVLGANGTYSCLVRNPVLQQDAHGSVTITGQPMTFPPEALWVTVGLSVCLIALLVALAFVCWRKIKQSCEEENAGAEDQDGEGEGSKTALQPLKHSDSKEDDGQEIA
# EXPERIMENTAL_DETAILS: cell-based or functional assay
Report the value in % with no unit label.

{"BINDER": "ADC4-16 (antibody, human IgG1, kappa, V domains shown, conjugator-linker-payload on cysteine thiols after TCEP reduction (DAR8), maleimide hydrolysed; residues not numbered; structure given only as a drawing) VH: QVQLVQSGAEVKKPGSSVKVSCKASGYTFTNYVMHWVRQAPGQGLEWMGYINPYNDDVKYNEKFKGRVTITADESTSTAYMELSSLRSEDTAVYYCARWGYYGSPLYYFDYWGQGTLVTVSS VL: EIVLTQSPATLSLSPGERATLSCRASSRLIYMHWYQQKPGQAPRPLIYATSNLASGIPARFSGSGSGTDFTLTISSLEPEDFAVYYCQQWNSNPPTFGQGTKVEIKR", "RESULT": 76.4}

Okay, next one:
Input: Dear colleague, please send me the reported Emax (%), ADC direct killing, NCI-H1650 (High), 3D for ADC4-11 (antibody, human IgG1, kappa, V domains shown, conjugator-linker-payload on cysteine thiols after TCEP reduction (DAR8), maleimide hydrolysed; residues not numbered; structure given only as a drawing) VH: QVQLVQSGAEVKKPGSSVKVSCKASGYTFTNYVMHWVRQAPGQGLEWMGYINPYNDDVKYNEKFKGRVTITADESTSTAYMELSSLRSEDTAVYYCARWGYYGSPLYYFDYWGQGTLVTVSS VL: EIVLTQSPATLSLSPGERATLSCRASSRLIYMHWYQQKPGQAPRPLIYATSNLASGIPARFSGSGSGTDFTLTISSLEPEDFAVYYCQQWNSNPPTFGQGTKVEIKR when you can.
Output: 85.6
